- test_summary: Degradation of apelin peptides by plasma from fasted normal NIH Swiss mice (rp-HPLC, MALDI-TOF MS)
- Type: in vitro ADME
reported_endpoint: Rank order of stability

{"compound": "CCCCCCCCCCCCCCCC(=O)N[C@@H](CCC(=O)NCCCC[C@H](NC(=O)[C@H](Cc1c[nH]cn1)NC(=O)[C@H](CO)NC(=O)[C@H](CC(C)C)NC(=O)[C@H](CCCNC(=N)N)NC(=O)[C@@H]1CCCN1C(=O)[C@H](CCCNC(=N)N)NC(=O)[C@@H](N)CCC(N)=O)C(=O)NCC(=O)N1CCC[C@H]1C(=O)N[C@@H](CCSC)C(=O)N1CCC[C@H]1C(=O)N[C@@H](Cc1ccccc1)C(N)=O)C(=O)O [(Lys^8GluPAL)apelin-13-amide]", "reported_endpoint": "Rank order of stability", "measured_value": "=1"}
{"compound": "CCCCCCCCCCCCCCCC(=O)N[C@@H](CCC(=O)NCCCC[C@H](NC(=O)[C@H](Cc1c[nH]cn1)NC(=O)[C@H](CO)NC(=O)[C@H](CC(C)C)NC(=O)[C@H](CCCNC(=N)N)NC(=O)[C@@H]1CCCN1C(=O)[C@H](CCCNC(=N)N)NC(=O)[C@@H]1CCC(=O)N1)C(=O)NCC(=O)N1CCC[C@H]1C(=O)N[C@@H](CCSC)C(=O)N1CCC[C@H]1C(=O)N[C@@H](Cc1ccccc1)C(N)=O)C(=O)O [pGlu(Lys^8GluPAL)apelin-13-amide]", "reported_endpoint": "Rank order of stability", "measured_value": "=1"}
{"compound": "CSCC[C@H](NC(=O)[C@@H]1CCCN1C(=O)CNC(=O)[C@H](CCCCN)NC(=O)[C@H](Cc1c[nH]cn1)NC(=O)[C@H](CO)NC(=O)[C@H](CC(C)C)NC(=O)[C@H](CCCNC(=N)N)NC(=O)[C@@H]1CCCN1C(=O)[C@H](CCCNC(=N)N)NC(=O)[C@@H](N)CCC(N)=O)C(=O)N1CCC[C@H]1C(=O)N[C@@H](C)C(=O)O [(Ala^13)apelin-13, reference compound]", "reported_endpoint": "Rank order of stability", "measured_value": 8}
{"compound": "CSCC[C@H](NC(=O)[C@@H]1CCCN1C(=O)CNC(=O)[C@H](CCCCN)NC(=O)[C@H](Cc1c[nH]cn1)NC(=O)[C@H](CO)NC(=O)[C@H](CC(C)C)NC(=O)[C@H](CCCNC(=N)N)NC(=O)[C@@H]1CCCN1C(=O)[C@H](CCCNC(=N)N)NC(=O)[C@@H]1CCC(=O)N1)C(=O)N1CCC[C@H]1C(=O)N[C@@H](Cc1ccc(O)cc1)C(=O)O", "reported_endpoint": "Rank order of stability", "measured_value": 4}
{"compound": "CSCC[C@H](NC(=O)[C@@H]1CCCN1C(=O)CNC(=O)[C@H](CCCCN)NC(=O)[C@H](Cc1cnc[nH]1)NC(=O)[C@H](CO)NC(=O)[C@H](CC(C)C)NC(=O)[C@H](CCCNC(=N)N)NC(=O)[C@@H]1CCCN1C(=O)[C@H](CCCNC(=N)N)NC(=O)[C@@H]1CCC(=O)N1)C(=O)N1CCC[C@H]1C(=O)N[C@@H](C)C(=O)O", "reported_endpoint": "Rank order of stability", "measured_value": 6}
{"compound": "CSCC[C@H](NC(=O)[C@@H]1CCCN1C(=O)CNC(=O)[C@H](CCCCN)NC(=O)[C@H](Cc1c[nH]cn1)NC(=O)[C@H](CO)NC(=O)[C@H](CC(C)C)NC(=O)[C@H](CCCNC(=N)N)NC(=O)[C@@H]1CCCN1C(=O)[C@@H](N)CCCNC(=N)N)C(=O)N1CCC[C@H]1C(=O)N[C@@H](Cc1ccccc1)C(=O)O [Apelin-12, reference compound]", "reported_endpoint": "Rank order of stability", "measured_value": 13}
{"compound": "CSCC[C@H](NC(=O)[C@@H]1CCCN1C(=O)CNC(=O)[C@H](CCCCN)NC(=O)[C@H](Cc1c[nH]cn1)NC(=O)[C@H](CO)NC(=O)[C@H](CC(C)C)NC(=O)[C@H](CCCNC(=N)N)NC(=O)[C@@H]1CCCN1C(=O)[C@H](CCCNC(=N)N)NC(=O)[C@@H]1CCC(=O)N1)C(=O)N1CCC[C@H]1C(=O)N[C@H](C(=O)O)C(C)C", "reported_endpoint": "Rank order of stability", "measured_value": 9}
{"compound": "CCCCCCCCCCCCCCCC(=O)N[C@@H](CCC(=O)NCCCC[C@H](NC(=O)[C@H](Cc1c[nH]cn1)NC(=O)[C@H](CO)NC(=O)[C@H](CC(C)C)NC(=O)[C@H](CCCNC(=N)N)NC(=O)[C@@H]1CCCN1C(=O)[C@H](CCCNC(=N)N)NC(=O)[C@@H](N)CCC(N)=O)C(=O)NCC(=O)N1CCC[C@H]1C(=O)N[C@@H](CCSC)C(=O)N1CCC[C@H]1C(=O)N[C@@H](Cc1ccc(O)cc1)C(=O)O)C(=O)O", "reported_endpoint": "Rank order of stability", "measured_value": "=1"}
{"compound": "CSCC[C@H](NC(=O)[C@@H]1CCCN1C(=O)CNC(=O)[C@H](CCCCN)NC(=O)[C@H](Cc1c[nH]cn1)NC(=O)[C@H](CO)NC(=O)[C@H](CC(C)C)NC(=O)[C@H](CCCNC(=N)N)NC(=O)[C@@H]1CCCN1C(=O)[C@H](CCCNC(=N)N)NC(=O)[C@@H](N)CCC(N)=O)C(=O)N1CCC[C@H]1C(=O)N[C@@H](Cc1ccc(O)cc1)C(=O)O", "reported_endpoint": "Rank order of stability", "measured_value": 10}
{"compound": "CSCC[C@H](NC(=O)[C@@H]1CCCN1C(=O)CNC(=O)[C@H](CCCCN)NC(=O)[C@H](Cc1c[nH]cn1)NC(=O)[C@H](CO)NC(=O)[C@H](CC(C)C)NC(=O)[C@H](CCCNC(=N)N)NC(=O)[C@@H]1CCCN1C(=O)[C@H](CCCNC(=N)N)NC(=O)[C@@H]1CCC(=O)N1)C(=O)N1CCC[C@H]1C(=O)N[C@@H](Cc1ccccc1)C(N)=O [(pGlu)apelin-13-amide]", "reported_endpoint": "Rank order of stability", "measured_value": 7}
{"compound": "CSCC[C@H](NC(=O)[C@@H]1CCCN1C(=O)CNC(=O)[C@H](CCCCN)NC(=O)[C@H](Cc1c[nH]cn1)NC(=O)[C@H](CO)NC(=O)[C@H](CC(C)C)NC(=O)[C@H](CCCNC(=N)N)NC(=O)[C@@H]1CCCN1C(=O)[C@H](CCCNC(=N)N)NC(=O)[C@@H](N)CCC(N)=O)C(=O)N1CCC[C@H]1C(=O)N[C@@H](Cc1ccccc1)C(N)=O [Apelin-13-amide]", "reported_endpoint": "Rank order of stability", "measured_value": 5}
{"compound": "CSCC[C@H](NC(=O)[C@@H]1CCCN1C(=O)CNC(=O)[C@H](CCCCN)NC(=O)[C@H](Cc1c[nH]cn1)NC(=O)[C@H](CO)NC(=O)[C@H](CC(C)C)NC(=O)[C@H](CCCNC(=N)N)NC(=O)[C@@H]1CCCN1C(=O)[C@H](CCCNC(=N)N)NC(=O)[C@@H](N)CCC(N)=O)C(=O)N1CCC[C@H]1C(=O)N[C@H](C(=O)O)C(C)C", "reported_endpoint": "Rank order of stability", "measured_value": 11}
